Entries and their measured pIC50 follow.
biological target: wt human TYK2, catalytic site (Homo sapiens, UniProt P29597); construct: wt human TYK2, catalytic site; purchased SignalChem; assay: HTRF KinEASE assay, TYK2; assay type: biochemical; conditions: 1 μM ATP; read-out: IC50, Activity Toward TYK2
pIC50: −log10 of the molar value.

Below are worked cases with known answers.
molecule="CN1CCC(Oc2ccc(Nc3cn(-c4c(F)cccc4F)nc3C(N)=O)cc2)CC1 [compound 288]" readout=pIC50 experimentalresult="7.00 to 8.00"
molecule="Cn1cc(C(F)(F)F)nc1-c1ccc(Nc2cn(-c3c(Cl)cccc3Cl)nc2C(N)=O)nc1 [compound 433]" readout=pIC50 experimentalresult="7.00 to 8.00"
molecule="CC(C)c1ncnn1-c1ccc(Nc2cn(-c3c(Cl)cccc3Cl)nc2C(N)=O)cc1 [compound 341]" readout=pIC50 experimentalresult="7.00 to 8.00"
molecule="N#Cc1ccnnc1-c1ccc(Nc2cn(-c3c(Cl)cccc3Cl)nc2C(N)=O)cc1 [compound 60]" readout=pIC50 experimentalresult="7.00 to 8.00"
molecule="NC(=O)c1nn(-c2c(F)cccc2F)cc1Nc1cccc(C(=O)N2CCOCC2)c1 [compound 18]" readout=pIC50 experimentalresult="6.00 to 7.00"

Prompt line: pIC50 for NC(=O)c1nn(-c2c(F)cccc2Cl)cc1Nc1ccc(-n2cc3c(n2)CCOC3)cc1 [compound 209] ?
Response line: 7.00 to 8.00

Prompt line: pIC50 for CCc1ncnn1-c1ccc(Nc2cn(-c3c(Cl)cccc3Cl)nc2C(N)=O)cc1 [compound 291] ?
Response line: 7.00 to 8.00

Prompt line: pIC50 for NC(=O)c1nn(-c2c(F)cccc2F)cc1Nc1ccc(C(=O)NC2CCOCC2)cc1 [compound 13] ?
Response line: 7.00 to 8.00

Prompt line: pIC50 for CN1CCn2c(nnc2-c2ccc(Nc3cn(-c4c(Cl)cccc4Cl)nc3C(N)=O)cc2)C1 [compound 269] ?
Response line: 7.00 to 8.00

====

Entries and their measured pIC50 follow.
Biological target: wt human TYK2, catalytic site (Homo sapiens, UniProt P29597)
Construct: wt human TYK2, catalytic site
Sequence (P29597 897-1176 limits assumed): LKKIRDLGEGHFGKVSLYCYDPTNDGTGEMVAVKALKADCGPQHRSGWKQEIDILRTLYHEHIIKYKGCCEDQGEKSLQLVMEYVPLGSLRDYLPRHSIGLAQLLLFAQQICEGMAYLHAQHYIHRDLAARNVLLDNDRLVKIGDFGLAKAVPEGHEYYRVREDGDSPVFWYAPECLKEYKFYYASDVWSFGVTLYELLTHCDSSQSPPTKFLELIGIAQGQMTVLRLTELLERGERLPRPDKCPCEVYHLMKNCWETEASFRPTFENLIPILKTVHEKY
Test: HTRF KinEASE assay, TYK2
Settings: 1 μM ATP; read-out: IC50, Activity Toward TYK2
pIC50: −log10 of the molar value.

Below are worked cases with known answers.
compound=Cn1cnnc1-c1ccc(Nc2nn(-c3c(Cl)cccc3Cl)nc2C(N)=O)cc1 experimentalresult="7.00 to 8.00"
compound=Cc1nnnn1-c1ccc(Nc2cn(-c3c(Cl)cccc3Cl)nc2C(N)=O)nc1 experimentalresult="7.00 to 8.00"
compound=Cn1nc(C(F)(F)F)nc1-c1ccc(Nc2cn(-c3c(Cl)cccc3Cl)nc2C(N)=O)cc1 experimentalresult="> 8.00"
compound=N#Cc1cccc(F)c1-n1cc(Nc2ccc(C(=O)N3CCS(=O)(=O)CC3)cc2)c(C(N)=O)n1 experimentalresult="> 8.00"

Prompt line: pIC50 for `NC(=O)c1nn(-c2c(Cl)cccc2Cl)cc1Nc1ccc(C(=O)N2CCN(C3CC3)CC2)nc1` ?
Response line: 7.00 to 8.00

Prompt line: pIC50 for `Cc1cnc(C)c(-n2cc(Nc3cn(-c4c(Cl)cccc4Cl)nc3C(N)=O)cn2)n1` ?
Response line: 6.00 to 7.00

Prompt line: pIC50 for `Cc1ccc(=O)n(-c2ccc(Nc3cn(-c4c(Cl)cccc4Cl)nc3C(N)=O)cc2)n1` ?
Response line: 7.00 to 8.00

Prompt line: pIC50 for `CC(C)(C)OC(=O)N[C@H]1CCN(C(=O)c2ccc(Nc3cn(-c4c(Cl)cccc4Cl)nc3C(N)=O)cc2)C1` ?
Response line: 7.00 to 8.00

Prompt line: pIC50 for `COCCc1nc(C(F)(F)F)nn1-c1ccc(Nc2cn(-c3c(Cl)cccc3Cl)nc2C(N)=O)cc1` ?
Response line: 7.00 to 8.00

Prompt line: pIC50 for `CN(C)CCn1cc(C(F)(F)F)nc1-c1ccc(Nc2cn(-c3c(Cl)cccc3Cl)nc2C(N)=O)cc1` ?
Response line: 7.00 to 8.00

Prompt line: pIC50 for `Cn1cncc1-c1ccc(Nc2cn(-c3c(Cl)cccc3Cl)nc2C(N)=O)cc1` ?
Response line: 7.00 to 8.00

Prompt line: pIC50 for `Cc1ccnn1-c1ccc(Nc2cn(-c3c(Cl)cccc3Cl)nc2C(N)=O)cc1` ?
Response line: 7.00 to 8.00

Prompt line: pIC50 for `COCCn1cc(C(F)(F)F)nc1-c1ccc(Nc2cn(-c3c(Cl)cccc3Cl)nc2C(N)=O)cc1` ?
Response line: 7.00 to 8.00

====

Entries and their measured IC50 follow.
Biological target: wt human TYK2, catalytic site (Homo sapiens, UniProt P29597)
Construct: wt human TYK2, catalytic site
Sequence (P29597 897-1176 limits assumed): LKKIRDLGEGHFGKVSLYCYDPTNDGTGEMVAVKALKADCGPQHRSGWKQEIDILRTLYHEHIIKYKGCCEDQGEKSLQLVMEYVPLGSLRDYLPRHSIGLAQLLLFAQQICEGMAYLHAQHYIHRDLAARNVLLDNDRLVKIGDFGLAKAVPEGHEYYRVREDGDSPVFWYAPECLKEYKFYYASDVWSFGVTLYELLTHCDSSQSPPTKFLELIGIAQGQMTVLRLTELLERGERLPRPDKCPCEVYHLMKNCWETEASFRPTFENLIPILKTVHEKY
Test: HTRF KinEASE assay, TYK2
Conditions: 1 μM ATP; read-out: IC50, Activity Toward TYK2

compound=Cc1cc(C)n(-c2ccc(Nc3cn(-c4c(Cl)cccc4Cl)nc3C(N)=O)cc2)n1 readout=IC50 experimentalresult="0.01 to 0.1 µM"

Prompt line: IC50 for `N#Cc1cccc(Cl)c1-n1cc(Nc2ccc(C(=O)N3CCOCC3)cc2)c(C(N)=O)n1` ?
Response line: < 0.01 µM

Prompt line: IC50 for `NC(=O)c1nn(-c2c(Cl)cccc2Cl)cc1Nc1ccc(-n2cc3c(n2)CCOC3)cc1` ?
Response line: 0.1 to 1 µM

Prompt line: IC50 for `NC(=O)c1nn(-c2c(Cl)ccc(F)c2Cl)cc1Nc1ccc(C(=O)N2CCOCC2)cc1` ?
Response line: < 0.01 µM

====

Molecular target: wt human TYK2, catalytic site (Homo sapiens)
Construct: wt human TYK2, catalytic site; purchased SignalChem
Sequence (P29597 897-1176 limits assumed): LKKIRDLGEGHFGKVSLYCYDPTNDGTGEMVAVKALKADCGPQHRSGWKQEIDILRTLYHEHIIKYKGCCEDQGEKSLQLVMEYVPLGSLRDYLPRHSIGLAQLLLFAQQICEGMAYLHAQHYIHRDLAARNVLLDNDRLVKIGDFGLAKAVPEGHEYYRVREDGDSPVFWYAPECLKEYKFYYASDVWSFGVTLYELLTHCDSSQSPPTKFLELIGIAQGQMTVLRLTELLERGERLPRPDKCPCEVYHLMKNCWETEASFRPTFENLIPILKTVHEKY
Assay: HTRF KinEASE assay, TYK2
Format: biochemical
Conditions: 1 μM ATP; read-out: IC50, Activity Toward TYK2
Entries and their measured IC50 follow.

molecule="CCn1nc(C(F)(F)F)nc1-c1ccc(Nc2cn(-c3c(F)cccc3Cl)nc2C(N)=O)cc1 [compound 289]" experimentalresult="100 to 1000 nM"
molecule="COCc1nc(C(F)(F)F)nn1-c1ccc(Nc2cn(-c3c(F)cccc3F)nc2C(N)=O)cc1 [compound 299]" experimentalresult="< 10 nM"
molecule="N#Cc1cccc(F)c1-n1cc(Nc2ccc(C(=O)N3CC[C@@H](F)C3)cc2)c(C(N)=O)n1 [compound 450]" experimentalresult="< 10 nM"

We now examine a further molecule.
Prompt line: IC50 for CN(C)[C@H]1CCN(C(=O)c2ccc(Nc3cn(-c4c(Cl)cccc4Cl)nc3C(N)=O)nc2)C1 [compound 366] ?
Response line: 10 to 100 nM

====

Entries and their measured IC50 follow.
target: wt human TYK2, catalytic site (Homo sapiens, UniProt P29597); construct: wt human TYK2, catalytic site; test: HTRF KinEASE assay, TYK2; conditions: 1 μM ATP; read-out: IC50, Activity Toward TYK2

Below are worked cases with known answers.
chemicalsmiles=Cc1ccnn1-c1ccc(Nc2cn(-c3c(F)cccc3Cl)nc2C(N)=O)cc1 experimentalresult="10 to 100 nM"
chemicalsmiles=NC(=O)c1nn(-c2c(Cl)cccc2Cl)cc1Nc1ccc(-c2nc(C(F)(F)F)cn2C2COC2)cc1 experimentalresult="< 10 nM"

We now examine a further compound.
Prompt line: Notebook entry, wt human TYK2, catalytic site (Homo sapiens, UniProt P29597) assay: IC50 of `NC(=O)c1nn(-c2c(Cl)cccc2Cl)cc1Nc1ccc(C(=O)N2CC3(CCC3)C2)cc1` = ?
Response line: < 10 nM
